meta.source: patent US7091311

TARGET_UNDER_TEST: soluble TPO-R (UniProt P40238)
Sequence (P40238 26-491): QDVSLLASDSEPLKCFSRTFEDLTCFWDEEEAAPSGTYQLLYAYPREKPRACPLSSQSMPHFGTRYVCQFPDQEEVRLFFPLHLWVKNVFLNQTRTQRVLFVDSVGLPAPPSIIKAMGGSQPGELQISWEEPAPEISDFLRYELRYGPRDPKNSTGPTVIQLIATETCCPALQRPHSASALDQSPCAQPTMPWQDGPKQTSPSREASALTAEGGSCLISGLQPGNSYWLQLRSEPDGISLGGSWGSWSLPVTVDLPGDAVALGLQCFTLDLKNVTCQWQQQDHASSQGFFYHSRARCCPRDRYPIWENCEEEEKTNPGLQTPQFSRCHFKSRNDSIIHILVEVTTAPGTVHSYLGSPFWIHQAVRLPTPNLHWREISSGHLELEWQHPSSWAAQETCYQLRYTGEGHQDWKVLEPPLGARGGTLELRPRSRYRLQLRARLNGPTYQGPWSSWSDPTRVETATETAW
ASSAY_OVERVIEW: competition ELISA vs MBP-TPO156
pIC50: −log10 of the molar value. Bridges are numbered along the chain shown (N, C = ends). Where no end group is shown, it is not given here. [ ]: non-standard residue; d: D form. 2Nal = N[C@@H](Cc1ccc2ccccc2c1)C(=O)O; Tle = CC(C)(C)[C@H](N)C(=O)O; NMeV = CN[C@H](C(=O)O)C(C)C; NMeA = CN[C@@H](C)C(=O)O; Nle = CCCC[C@H](N)C(=O)O; Abu = CC[C@H](N)C(=O)O; Aib = CC(C)(N)C(=O)O
QUANTITY_NAME: pIC50

Example binders with recorded pIC50:
| BINDER | pIC50 |
| --- | --- |
| CADGPTLREWI[NMeV]FC (disulfide 1-14 (inferred); not fully specified) [SEQ ID NO:12 cyclized, S - (N-Me-Val)] | 3.70 |
| CADGPTLREWIS[Pyridylala]C (not fully specified (bridges); also: cyclized, type not given here) [SEQ ID NO:12 cyclized, F - (Pyridylala)] | > 6.30 |
| CADGPTLREWI[Nle]FC (disulfide 1-14 (inferred); not fully specified) [SEQ ID NO:12 cyclized, S - (Nor-Leu)] | > 6.30 |
| CADGPTLREWI[Tle]FC (disulfide 1-14 (inferred); not fully specified) [SEQ ID NO:12 cyclized, S - (t-Bu-Gly)] | > 6.30 |
| GPTLREWISFC (not fully specified; also: further groups not given here) [[drawing CHEM-US-00039] (SEQ ID NO:190)(SEQ ID NO:190)] | > 3.70 |
| CADGPTLREWI[Abu]FC (disulfide 1-14 (inferred); not fully specified) [SEQ ID NO:12 cyclized, S - Abu] | > 6.30 |

## Input # input binder: CADGPTLREWIS[NMeA]C (disulfide 1-14 (inferred); not fully specified) [SEQ ID NO:12 cyclized, F - (N-Me-Ala)] ; wanted: its pIC50
## Output 3.70

## Input # input binder: GPTLREWISFC (not fully specified; also: further groups not given here) [[drawing CHEM-US-00038] (SEQ ID NO:190)(SEQ ID NO:190)] ; wanted: its pIC50
## Output > 6.30

## Input # input binder: CADGPTLREWIS[2Nal]C (disulfide 1-14 (inferred); not fully specified) [SEQ ID NO:12 cyclized, F - (2-Nal)] ; wanted: its pIC50
## Output > 6.30

## Input # input binder: CADGPTLREWI[Aib]FC (disulfide 1-14 (inferred); not fully specified) [SEQ ID NO:12 cyclized, S - Aib] ; wanted: its pIC50
## Output > 6.30
